Give measured pEC50 for each item. Keep answers brief.
target: Relaxin receptor 1 (Homo sapiens, UniProt Q9HBX9); assay: Agonist activity at human RXFP1 expressed in T-Rex-CHO-K1 cells assessed as stimulation of cAMP production incubated for 45 mins by HTRF assay; assay type: functional, cell-based
Sequence (Q9HBX9 whole entry): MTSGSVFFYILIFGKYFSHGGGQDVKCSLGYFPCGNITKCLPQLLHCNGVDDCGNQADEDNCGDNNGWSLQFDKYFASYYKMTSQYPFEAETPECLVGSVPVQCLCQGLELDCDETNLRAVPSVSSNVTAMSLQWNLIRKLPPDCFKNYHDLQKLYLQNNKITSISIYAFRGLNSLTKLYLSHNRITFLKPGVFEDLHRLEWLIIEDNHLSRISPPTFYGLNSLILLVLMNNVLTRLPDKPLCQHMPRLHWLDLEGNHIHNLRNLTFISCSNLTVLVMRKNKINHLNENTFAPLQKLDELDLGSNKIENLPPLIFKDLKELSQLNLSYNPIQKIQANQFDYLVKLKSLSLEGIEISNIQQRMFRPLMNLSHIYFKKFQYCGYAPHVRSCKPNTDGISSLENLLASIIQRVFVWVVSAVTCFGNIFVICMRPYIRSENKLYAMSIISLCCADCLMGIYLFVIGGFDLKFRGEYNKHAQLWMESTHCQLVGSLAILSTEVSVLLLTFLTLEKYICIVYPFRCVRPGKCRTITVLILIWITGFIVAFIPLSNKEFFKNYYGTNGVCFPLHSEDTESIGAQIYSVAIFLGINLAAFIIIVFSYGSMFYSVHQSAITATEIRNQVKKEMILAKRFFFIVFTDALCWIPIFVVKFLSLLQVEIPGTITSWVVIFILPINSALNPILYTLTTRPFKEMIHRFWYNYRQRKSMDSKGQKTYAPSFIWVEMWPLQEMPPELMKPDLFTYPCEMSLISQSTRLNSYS
# pEC50: negative log10 of molar concentration; output just the value

Item "COc1cc(F)c(O[C@H]2CC[C@@](C)(C(=O)O)CC2)cc1C(=O)N[C@@H]1C[C@@H](OC)C[C@@H]1C(=O)Nc1cccc(S(=O)(=O)C(F)(F)F)c1" ; assay system Relaxin receptor 1 (Homo sapiens, UniProt Q9HBX9); pEC50 reported as 7.60

Record for COc1ccccc1C(=O)N[C@@H]1[C@H](C(=O)Nc2cccc(S(=O)(=O)C(F)(F)F)c2)[C@H]2C=C[C@@H]1C2 (racemic) under target or system Relaxin receptor 1 (Homo sapiens, UniProt Q9HBX9): pEC50 reported as 5.50

Entry "COc1cc(F)c(-c2cccc(C(=O)O)c2)cc1C(=O)N[C@H]1[C@@H](C(=O)Nc2cccc(S(=O)(=O)C(F)(F)F)c2)[C@@H]2C=C[C@H]1C2" under Relaxin receptor 1 (Homo sapiens, UniProt Q9HBX9) had pEC50 of 6.80

Reported pEC50 (Relaxin receptor 1 (Homo sapiens, UniProt Q9HBX9)) for entry "COc1cc(F)c(O[C@H]2CC[C@H](C(=O)O)CC2)cc1C(=O)N[C@H]1[C@@H](C(=O)Nc2cccc(S(=O)(=O)C(F)(F)F)c2)[C@@H]2C=C[C@H]1C2" is 5.70

pEC50 on Relaxin receptor 1 (Homo sapiens, UniProt Q9HBX9) for COc1cc(F)c(Oc2ccc(C(=O)O)cc2)cc1C(=O)N[C@H]1[C@@H](C(=O)Nc2cccc(S(=O)(=O)C(F)(F)F)c2)[C@@H]2C=C[C@H]1C2 (racemic) is 6.50

Record COc1cc(F)c(F)cc1C(=O)N[C@@H]1[C@H](C(=O)Nc2cccc(S(=O)(=O)C(F)(F)F)c2)[C@H]2C=C[C@@H]1C2 (racemic) / Relaxin receptor 1 (Homo sapiens, UniProt Q9HBX9), pEC50 recorded as 6.10

The recorded pEC50 with Relaxin receptor 1 (Homo sapiens, UniProt Q9HBX9) for "COc1cc(F)c(O[C@H]2CC[C@](C)(C(=O)O)CC2)cc1C(=O)N[C@@H]1[C@H]2CC[C@H](C2)[C@@H]1C(=O)Nc1cccc(S(=O)(=O)C(F)(F)F)c1" was 7.00

# COc1cc(F)c(-c2ccc(CC(=O)O)cc2)cc1C(=O)N[C@H]1[C@@H](C(=O)Nc2cccc(S(=O)(=O)C(F)(F)F)c2)[C@@H]2C=C[C@H]1C2 (racemic) with Relaxin receptor 1 (Homo sapiens, UniProt Q9HBX9): pEC50 is 7.10

Sample "COc1cc(F)c(O[C@H]2CC[C@@H](C(=O)O)CC2)cc1C(=O)N[C@H]1[C@@H](C(=O)Nc2ccc(F)c(C(F)(F)F)c2)[C@@H]2C=C[C@H]1C2" , system: Relaxin receptor 1 (Homo sapiens, UniProt Q9HBX9). Its pEC50 is 7.80

* * *

Hi there, I'd appreciate the recorded EC50 for every entry that follows.
Target: Relaxin receptor 1 (Rattus norvegicus, UniProt Q6R6I6)
Sequence (Q6R6I6 whole entry): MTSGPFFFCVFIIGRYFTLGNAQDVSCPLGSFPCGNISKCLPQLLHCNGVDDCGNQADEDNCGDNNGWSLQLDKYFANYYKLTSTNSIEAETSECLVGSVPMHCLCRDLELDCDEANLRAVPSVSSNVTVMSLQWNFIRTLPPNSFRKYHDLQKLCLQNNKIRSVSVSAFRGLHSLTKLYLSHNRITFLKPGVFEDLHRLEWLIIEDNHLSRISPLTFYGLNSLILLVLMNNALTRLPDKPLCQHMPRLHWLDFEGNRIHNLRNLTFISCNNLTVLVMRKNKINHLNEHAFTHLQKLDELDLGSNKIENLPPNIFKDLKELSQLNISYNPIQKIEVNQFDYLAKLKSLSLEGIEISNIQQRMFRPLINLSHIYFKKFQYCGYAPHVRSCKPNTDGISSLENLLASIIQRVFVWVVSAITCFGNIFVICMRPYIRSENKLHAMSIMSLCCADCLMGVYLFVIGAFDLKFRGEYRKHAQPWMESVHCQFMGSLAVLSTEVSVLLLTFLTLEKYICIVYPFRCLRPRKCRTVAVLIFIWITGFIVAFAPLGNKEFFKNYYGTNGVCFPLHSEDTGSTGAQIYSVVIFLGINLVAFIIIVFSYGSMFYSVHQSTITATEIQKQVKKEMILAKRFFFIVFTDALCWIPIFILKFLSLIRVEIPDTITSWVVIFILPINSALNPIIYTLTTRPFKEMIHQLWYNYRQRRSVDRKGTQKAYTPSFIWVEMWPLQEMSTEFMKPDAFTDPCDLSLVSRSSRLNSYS
Test: Agonist activity at rat RXFP1 expressed in T-Rex-CHO-K1 cells assessed as stimulation of cAMP production incubated for 60 mins by HTRF assay
Express it in µM; write the number only.

# EC50 (compound: "COc1cc(F)c(O[C@H]2CC[C@@](C)(C(=O)O)CC2)cc1C(=O)N[C@H]1[C@@H]2CC[C@@H](C2)[C@H]1C(=O)Nc1ccc(F)c(S(F)(F)(F)(F)F)c1" ) is 7.94

# compound "COc1cc(F)c(O[C@H]2CC[C@@H](C(=O)O)CC2)cc1C(=O)N[C@@H]1[C@H]2CC[C@H](C2)[C@@H]1C(=O)Nc1cccc(S(=O)(=O)C(F)(F)F)c1" ; its EC50 = 10

Just so you know, measured EC50 for "COc1cc(F)c(O[C@H]2CC[C@@](C)(C(=O)O)CC2)cc1C(=O)N[C@@H]1[C@H]2CC[C@H](C2)[C@@H]1C(=O)Nc1ccc(F)c(S(F)(F)(F)(F)F)c1" came out at 0.2
